Data provenance: PubChem BioAssay (NCATS)

test system: HaCat; assay: Cytotoxic Profiling of Annotated Libraries Using Quantitative High-Throughput Screening (AID 1296008); conditions: Five cell lines viability, CellTiter-Glo ATP luminescence, 48-72 h; further: nearly all actives have a fitted effect of over 60% in size
Inconclusive results are not listed. Calls of active or inactive are those of the source. The call rests on the fitted dose curve; in most records, active means well fitted inhibition curve with a large enough effect; inconclusive means small, poorly fitted or top-dose-only effect; inactive means flat fitted curve, though single readings scatter.
Outcomes: active, inactive

1) CC1(C)CCCC2(C)C1C(OC(=O)/C=C/C=C/C=O)C=C1COC(=O)C12O (stereo not given) | inactive
2) CC#CC(=O)Nc1ccc2ncnc(Nc3cccc(Br)c3)c2c1 | active
3) CCCCC1CCC(c2nc(-c3ccncc3)no2)CC1 (stereo not given) | inactive
4) CCN1C(C)(C)CC(Oc2ccc(C(=O)Nc3ccc(NC(=O)Nc4cc(C(C)(C)C)on4)cc3)nc2)CC1(C)C | inactive
5) CC(C)S(=O)(=O)c1ccc2nccc(Nc3ccc4scnc4c3)c2c1 | inactive

* * *

test system: Tov-21-G; assay: Primary qHTS to identify gynecologic anti-cancer compounds using libraries of approved drugs and bioactive compounds (AID 1345084); details: Gynecologic cancer cell panel viability, ATPlite luminescence, 48 h; series mostly up to 57.5 µM; further: nearly all actives have a fitted effect of over 55% in size
Inconclusive results are not listed. Active and inactive are the calls of the source. Calls come from the whole dose curve; as a rule, active = well fitted cell-killing curve with a large enough effect; inconclusive = small, poorly fitted or top-dose-only effect, or effect the other way; inactive = flat fitted curve, though single readings scatter.
Outcomes: 1 = active, -1 = inactive

1) COc1cc(-n2cnc3cc(-c4ccc(Cl)cc4)sc3c2=O)ccc1OCCN1CCCC1 | -1
2) CN(C)Cc1ccc(-c2cnn3c(-c4cccc(NC(=O)c5cccc(C(F)(F)F)c5)c4)ccnc23)cc1 | -1
3) C/C=C/C=C/C=C/C(=O)O[C@@H]1C=C2COC(=O)[C@]2(O)[C@@]2(C)CCCC(C)(C)[C@H]12 | -1
4) COc1cc(O)cc(/C=C/c2cccc(O)c2)c1 | -1
5) C[C@@H]1C[C@H](C)CN(CCC(=O)Nc2ccc(Br)cc2)C1 | -1
6) Cc1noc(-c2ccc(-c3ccc(CC(=O)O)cc3)cc2)c1NC(=O)O[C@H](C)c1ccccc1Cl | -1
7) CCNC1(C(N)=O)CCN(c2ncnc3c2nc(-c2ccccc2Cl)n3-c2ccc(Cl)cc2)CC1 | -1
8) CN(C)CCOc1cc(NS(=O)(=O)c2c(Cl)cc(C(F)(F)F)cc2Cl)ccc1Cl | -1
9) O=C(Nc1ccc(C(F)(F)F)cn1)N1CCN(c2ncccc2C(F)(F)F)CC1 | -1
10) CC(=O)OC(C)(C)/C=C/C(=O)[C@](C)(O)[C@H]1C(O)C[C@@]2(C)[C@@H]3CC=C4[C@@H](C=C(O[C@@H]5O[C@H](CO)[C@@H](O)[C@H](O)[C@H]5O)C(=O)C4(C)C)[C@]3(C)C(=O)C[C@]12C (stereo partly specified) | -1
11) CC(NCCCc1cccc(C(F)(F)F)c1)c1cccc2ccccc12 (stereo unspecified) | -1
12) Cc1ccc(N2CCN(CCC3NC(=O)c4ccccc43)CC2)cc1C (stereo unspecified) | -1
13) CC(O)C(C)n1ncn(-c2ccc(N3CCN(c4ccc(OCC5COC(Cn6cncn6)(c6ccc(Cl)cc6Cl)O5)cc4)CC3)cc2)c1=O (stereo unspecified) | -1
14) CCOC(=O)N1CCC(CN(Cc2ccc(Cl)cc2)Cc2ccc([N+](=O)[O-])s2)C1 (stereo unspecified) | -1
15) CCN(CC)C(=O)C(c1ccccc1)N1CCN(c2ccc(NC(=O)c3ccccc3-c3cccnc3)cc2F)CC1 (stereo unspecified) | -1
16) Cc1cc(-c2ncc(-c3cccnc3)cc2/C=C/c2ccccc2)cnc1-c1cccnc1 | -1
17) C=C1C(=O)OC2C=C(C)CC/C=C(\CO)CC(O)C12 (stereo unspecified) | -1
18) O=C(NCCO)c1cccc(-c2cc(Nc3ccc(OC(F)(F)F)cc3)ncn2)c1 | -1
19) CC(C)(O)c1ccn2c(-c3ccc(F)c(-c4ccc(F)cc4C#N)c3)cnc2c1F | -1
20) Cn1ncc(Cl)c1-c1cc(C(=O)N[C@H](CN)Cc2ccc(F)c(F)c2)oc1Cl | 1
21) Cn1c(CO)c(-c2ccccc2)c2cc([N+](=O)[O-])ccc21 | -1
22) Cc1ccc(C(C)C)c(O[C@@H]2O[C@H](CO)[C@@H](O)[C@H](O)[C@H]2O)c1 | -1
23) CN(C)[C@@H]1CCc2[nH]c3ccc(NC(=O)c4ccc(F)cc4)cc3c2C1 | -1
24) CNc1cc2[nH]c(=O)n(-c3ccc(NC(=O)NS(=O)(=O)c4ccc(Cl)s4)cc3)c(=O)c2cc1F | -1
25) COc1cc(C(=O)O)ccc1NC(=O)C1NC(CC(C)(C)C)C(C#N)(c2ccc(Cl)cc2F)C1c1cccc(Cl)c1F (stereo unspecified) | -1
26) O=C(NCCN1CCOCC1)c1cc2c(Oc3ccc(NC(=O)C4(C(=O)Nc5ccc(F)cc5)CC4)cc3)ccnc2[nH]1 | -1
27) CC(C)c1ccccc1OC(=O)NCCc1ccc2ccccc2c1 | -1
28) COc1ccc(C#Cc2ccc(C(=O)N3CCC[C@@H](O)C3)c(F)c2)cc1 | 1
29) Cc1ccc(C)c(NC(=O)[C@@H]2CCCN2S(=O)(=O)c2cccc3cccnc23)c1 | -1
30) CCOC(=O)N1CCC(N2CCC[C@@H](NC(=O)c3ccccc3C)C2)CC1 | -1
31) O=C(Nc1ccc(-c2ccc(Cl)c(Cl)c2)cc1)C1=C(O)c2ccccc2S(=O)(=O)N1 | -1
32) O=[N+]([O-])c1cn2c(n1)OC[C@@H](OCc1ccc(-c3ccc(OC(F)(F)F)cc3)nc1)C2 | -1
33) CCC(C)C(=O)OC1C(C)C2(O)C(C=C(CO)CC3(O)C(=O)C(C)=CC32)C2C(C)(C)C12OC(=O)C(C)C (stereo unspecified) | -1
34) CC(C)(Cc1ccccc1)NCC(O)c1ccc(O)c(NS(C)(=O)=O)c1 (stereo unspecified) | -1
35) CCC/C=C\C=C/CCc1cc(O)c([C@@H]2O[C@H](CO)[C@@H](O)[C@H](O)[C@H]2O)c(O)c1C(=O)OC | -1
36) Cc1cc(OCCCS(C)(=O)=O)cc(C)c1-c1cccc(COc2ccc3c(c2)OCC3CC(=O)O)c1 (stereo unspecified) | -1
